Target: T1, Human polyclonal immunoglobulin G (IgG) (human)
T1 construct: also called hIgG; IVIG
Test: affinity chromatography, peptide resin, 10 mg/mL hIgG in PBS; 2nd run, after resin contacted with alpha-chymotrypsin
*1 amine or outer side, *2 acyl side, *3 side chain or, on linkers, in order; H or OH if unused. Where no end group is shown, it is not given here. [ ]: non-standard residue; d: D form. Tyr(Me) = O-methyl-tyrosine, COc1ccc(C[C@H](N[*:1])C(=O)[*:2])cc1; Trp(1-Me) = Cn1cc(C[C@H](N)C(=O)O)c2ccccc21; Phe(4-Me) = Cc1ccc(C[C@H](N)C(=O)O)cc1; Lys(Me2) = CN(C)CCCC[C@H](N)C(=O)O; Cit = NC(=O)NCCC[C@H](N)C(=O)O
METRIC NAME: IgG yield (%)

BINDER	METRIC NAME	UNITS	REPORTED RESULT
H[Trp(1-Me)][Cit]G[Trp(1-Me)]V-{Toyopearl AF‑Amino‑650M resin} (Variant of HWRGWV on Toyopearl resin; also called HWMetCitGWMetV-Toyopearl) [HWMetCitGWMetV]	IgG yield	%	91
HFRRHL-{Toyopearl AF‑Amino‑650M resin} (Synthetic hexapeptide on Toyopearl resin; also called HFRRHL-Toyopearl)	IgG yield	%	78
H[Phe(4-Me)][Cit][Cit]HL-{Toyopearl AF‑Amino‑650M resin} (Variant of HFRRHL on Toyopearl resin; also called HFMetCitCitHL-Toyopearl) [HFMetCitCitHL]	IgG yield	%	92
HYFKFD-{Toyopearl AF‑Amino‑650M resin} (Synthetic hexapeptide on Toyopearl resin; also called HYFKFD-Toyopearl)	IgG yield	%	76
HWRGWV-{Toyopearl AF‑Amino‑650M resin} (not fully specified, Synthetic hexapeptide made directly on Toyopearl AF-Amino-650M resin after a first Fmoc-Ala-OH coupling, about 0.12 meq/g; also called HWRGWV-Toyopearl; original peptide ligand)	IgG yield	%	72
H[Tyr(Me)][Phe(4-Me)][Lys(Me2)][Phe(4-Me)]D-{Toyopearl AF‑Amino‑650M resin} (Variant of HYFKFD on Toyopearl resin, used as a negative control; also called HYMetFMetK(Met)2FMetD-Toyopearl) [HYMetFMetKMet2FMetD]	IgG yield	%	49
